Molecular target: recombinant hemagglutinin HA1 subunit (rHA, H5) (Influenza A virus A/Vietnam/1203/2004 …, UniProt Q5EP31 17-346)
Experiment: BLI; rHA immobilized; apparent KD; BLI at 30 C in sodium-potassium phosphate buffer pH 7.4 ([…]
Details: protein: commercial; label: none (rHA); 5'-biotin (vHA BLI); parallel G4, 74% monomer
measured_attribute: Kd (nM)
// units = nM; emit number, no label

For the binder GGGTTATTTTGGGAGGGCGGGGGTT (structured_DNA) [G7n5t] , what Kd is on record?
0.3

Reported Kd, binder GGGTTATTTTGGGAGGGCGGG (structured_DNA) [G7nt] : ____
0.7

Every entry's value here was drawn from paper PMC7957560.
